Taken from patent US20140045860A1.

A collection of compounds and their measured IC50
- Tested on: T. b. rhod.
- TEST: In vitro counter screen, T. b. rhod.
- Assay type: cell-based
- RUN CONDITIONS: read-out: T. b. rhod. (IC50, ug/mL)
Give your result in µg/mL as a bare value.

Some entries whose results are on file:
C[C@@H]1CN([C@@H](C)CO)C(=O)c2cccc(NC(=O)c3ccncc3)c2O[C@H]1CN(C)Cc1ccc(-c2ccccc2)cc1 [Compound 7] : 0.729
C[C@H](CO)N1C[C@H](C)[C@@H](CN(C)Cc2ccc(C(F)(F)F)cc2)Oc2c(NC(=O)c3ccncc3)cccc2C1=O [Compound 13] : 3.49

Now consider the entry below.
Identify measured IC50 corresponding to C[C@H](CO)N1C[C@H](C)[C@H](CN(C)Cc2ccccc2)Oc2c(NC(=O)c3ccncc3)cccc2C1=O [Compound 1]
75.4
